test system: HOP-62 NSCLC; assay: NCI tumour cell line growth inhibition, 48 h; in the data active = GI50 below about 0.43 µM; inactive = the rest
Thanks in advance; please answer with one of these: Yes (active), No (inactive)

- compound: "COc1ccc2c(c1)O/C(=C\\c1cccc(OCC(=O)Nc3nc4c(s3)CCCC4)c1)C2=O"
  qualitative-label: "No"
- compound: "CN(CCCN)CCCNc1nc2ccccc2c2[nH]c3ccccc3c12"
  qualitative-label: "Yes"
- compound: "C[C@H](Nc1ncnc2nc[nH]c12)c1cc2cccc(Cl)c2c(=O)n1-c1ccccc1"
  qualitative-label: "No"
- compound: "Nc1c(C(=O)Nc2cccc([N+](=O)[O-])c2)sc2nc3c(cc12)C(O)CCC3 (stereo unspecified)"
  qualitative-label: "No"
- compound: "CN(C)c1nc(=NCc2ccncc2)ss1"
  qualitative-label: "No"

For the next question, use this compound.
For this compound, state the assay outcome: Cc1ccc2c(ccc3c[n+]4c5ccccc5ccc4n32)c1 No
